Here the recorded EC50 is given for each entry.
target: human α7 nAChR (Homo sapiens, UniProt P36544); construct: host or cells: GH4C1 cells (pituitary tumor, immortalized cell line); assay: α7 nAChR FLIPR (Fluorometric Imaging Plate Reader) Ca2+ assay, agonist EC50; format: cell-based; conditions: GH4C1 cells stably transfected with human α7 nAChR; Fluo-4 Ca2+ fluorescence; Examples 194 to 205 tested as the HCl salt; read-out: pEC50 value (negative logarithm of the agonist EC50) (converted)
Sequence (P36544 23-502): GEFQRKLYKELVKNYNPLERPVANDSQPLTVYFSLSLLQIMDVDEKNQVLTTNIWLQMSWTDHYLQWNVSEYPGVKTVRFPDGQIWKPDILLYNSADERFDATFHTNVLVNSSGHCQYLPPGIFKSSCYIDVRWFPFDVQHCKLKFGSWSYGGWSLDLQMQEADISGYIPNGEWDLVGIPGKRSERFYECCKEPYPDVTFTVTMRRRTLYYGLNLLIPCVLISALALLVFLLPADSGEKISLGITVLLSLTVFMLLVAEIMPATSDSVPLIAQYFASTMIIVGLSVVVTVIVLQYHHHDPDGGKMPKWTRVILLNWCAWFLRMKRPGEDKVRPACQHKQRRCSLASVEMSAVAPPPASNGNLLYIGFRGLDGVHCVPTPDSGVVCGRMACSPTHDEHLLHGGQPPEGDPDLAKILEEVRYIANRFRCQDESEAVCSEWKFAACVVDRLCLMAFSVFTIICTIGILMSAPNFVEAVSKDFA

{"Smiles record": "O=C(Nc1ccc(-c2nnc(NCCCN3CCCCC3)o2)cc1)c1ccc(Cl)cc1", "EC50": "≤ 1000 nM"}
{"Smiles record": "COc1cc(NC(=O)c2ccccc2)ccc1-c1nnc(NCCCN2CCCCC2)o1", "EC50": "≤ 100 nM"}
{"Smiles record": "CCN(CC)CCCNc1nnc(-c2ccc(NC(=O)C3CCCC3)cc2OC)o1", "EC50": "≤ 1000 nM"}
{"Smiles record": "O=C(Nc1ccc(-c2nnc(NCCCN3CCCC3)o2)c(Cl)c1)C1CCCCC1", "EC50": "≤ 1000 nM"}
{"Smiles record": "CCN(CC)CCCNc1nnc(-c2ccc(NC(=O)C3CCCCC3)cc2F)o1", "EC50": "≤ 1000 nM"}
